tested on: ACE (Sigma A 6778) (Oryctolagus cuniculus, UniProt P12822)
Construct: purchased Sigma A 6778
Sequence (P12822 34-1310): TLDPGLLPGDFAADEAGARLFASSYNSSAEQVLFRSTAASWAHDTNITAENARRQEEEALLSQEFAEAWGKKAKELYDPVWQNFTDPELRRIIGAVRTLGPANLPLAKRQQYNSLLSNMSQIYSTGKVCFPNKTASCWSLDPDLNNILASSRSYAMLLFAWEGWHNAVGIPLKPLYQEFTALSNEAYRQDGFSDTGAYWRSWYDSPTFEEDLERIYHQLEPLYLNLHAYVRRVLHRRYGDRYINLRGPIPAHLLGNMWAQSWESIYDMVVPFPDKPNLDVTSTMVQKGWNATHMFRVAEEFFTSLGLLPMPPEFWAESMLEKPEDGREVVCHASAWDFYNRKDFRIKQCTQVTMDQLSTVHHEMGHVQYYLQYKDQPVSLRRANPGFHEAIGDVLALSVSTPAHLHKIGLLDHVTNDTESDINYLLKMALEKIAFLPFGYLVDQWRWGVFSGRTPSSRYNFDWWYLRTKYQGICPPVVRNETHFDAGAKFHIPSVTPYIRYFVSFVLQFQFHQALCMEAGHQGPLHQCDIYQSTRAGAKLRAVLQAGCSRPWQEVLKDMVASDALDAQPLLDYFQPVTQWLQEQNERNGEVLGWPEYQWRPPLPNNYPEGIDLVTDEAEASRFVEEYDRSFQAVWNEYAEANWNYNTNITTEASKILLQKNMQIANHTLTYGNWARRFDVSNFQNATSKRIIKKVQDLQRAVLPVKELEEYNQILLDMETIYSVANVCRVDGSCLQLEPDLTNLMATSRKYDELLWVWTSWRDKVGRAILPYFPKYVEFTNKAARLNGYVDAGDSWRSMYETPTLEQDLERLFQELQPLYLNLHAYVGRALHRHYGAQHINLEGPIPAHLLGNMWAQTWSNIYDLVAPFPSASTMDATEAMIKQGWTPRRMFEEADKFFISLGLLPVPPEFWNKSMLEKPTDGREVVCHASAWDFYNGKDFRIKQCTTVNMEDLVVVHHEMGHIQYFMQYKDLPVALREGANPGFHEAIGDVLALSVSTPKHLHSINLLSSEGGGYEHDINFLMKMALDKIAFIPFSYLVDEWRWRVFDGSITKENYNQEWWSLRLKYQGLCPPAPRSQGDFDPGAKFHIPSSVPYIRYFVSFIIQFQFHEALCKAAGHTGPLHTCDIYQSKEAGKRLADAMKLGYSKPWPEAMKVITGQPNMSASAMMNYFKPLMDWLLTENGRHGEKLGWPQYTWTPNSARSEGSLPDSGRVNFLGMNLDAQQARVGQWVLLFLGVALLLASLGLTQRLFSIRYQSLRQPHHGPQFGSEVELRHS
experiment description: ACE-inhibitory activity, HHL substrate, hippuric acid by HPLC (method of Dragnes et al. / Cushman and Cheung)
Assay type: biochemical
assay setup: typical measurements, read-out: IC50 with respect to ACE inhibition, method of Dragnes et al.
pIC50: −log10 of the molar value. Peptide text beside a SMILES is read from it.
parameter: pIC50

molecule	tested on	parameter	obs value
N[C@@H](Cc1ccccc1)C(=O)N[C@@H](CO)C(=O)N[C@@H](Cc1ccc(O)cc1)C(=O)O [FSY] (H-Phe-Ser-Tyr-OH; N-terminus and C-terminus assumed)	ACE (Sigma A 6778) (Oryctolagus cuniculus, UniProt P12822)	pIC50	~5.66

* * *

tested on: ACE (Sigma A 6778) (Oryctolagus cuniculus, UniProt P12822)
Construct: purchased Sigma A 6778
experiment description: ACE-inhibitory activity, HHL substrate, hippuric acid by HPLC (method of Dragnes et al. / Cushman and Cheung)
Format: biochemical
assay setup: comparative analysis, read-out: IC50
Peptide text beside a SMILES is read from it.

molecule	unit of measure	IC50
N[C@@H](Cc1ccccc1)C(=O)N[C@@H](CO)C(=O)N[C@@H](Cc1ccc(O)cc1)C(=O)O [FSY] (H-Phe-Ser-Tyr-OH; N-terminus and C-terminus assumed)	µM	2.2
